For each entry below, report its MIC value.
System: Trichophyton interdigitale CCM 8377 (ATCC 9533)
assay: Antifungal microdilution broth method, TI
Type: cell-based
setup.conditions: 48 h, read-out: MIC TI

Some compounds with recorded MIC:
| compound | assay.system | MIC |
| --- | --- | --- |
| CCOC(=O)C[C@H](NC(=O)c1cnccn1)C(=O)OCC | Trichophyton interdigitale CCM 8377 (ATCC 9533) | > 500 µM |
| O=C(N[C@@H](CSCc1ccccc1)C(=O)O)c1cnccn1 | Trichophyton interdigitale CCM 8377 (ATCC 9533) | > 250 µM |
| CCOC(=O)CC[C@H](NC(=O)c1cnccn1)C(=O)OCC | Trichophyton interdigitale CCM 8377 (ATCC 9533) | > 500 µM |
| COC(=O)C(NC(=O)c1cnccn1)c1ccccc1 (centres unmarked) | Trichophyton interdigitale CCM 8377 (ATCC 9533) | > 500 µM |
| COC(=O)[C@H](CO)NC(=O)c1cnccn1 [PC-L-Ser-Me, methyl (pyrazine-2-carbonyl)-L-serinate] | Trichophyton interdigitale CCM 8377 (ATCC 9533) | > 500 µM |
| CCOC(=O)CNC(=O)c1cnccn1 [PC-Gly-Et, ethyl (pyrazine-2-carbonyl)glycinate] | Trichophyton interdigitale CCM 8377 (ATCC 9533) | > 500 µM |
| CCOC(=O)[C@@H](C)NC(=O)c1cnccn1 [PC-D-Ala-Et, ethyl (pyrazine-2-carbonyl)-D-alaninate] | Trichophyton interdigitale CCM 8377 (ATCC 9533) | > 500 µM |
| COC(=O)[C@H](CCSC)NC(=O)c1cnccn1 | Trichophyton interdigitale CCM 8377 (ATCC 9533) | 500 µM |
| COC(=O)[C@H](NC(=O)c1cnccn1)[C@H](C)OC(C)(C)C | Trichophyton interdigitale CCM 8377 (ATCC 9533) | > 500 µM |
| C[C@H](NC(=O)c1cnccn1)C(=O)O | Trichophyton interdigitale CCM 8377 (ATCC 9533) | > 500 µM |

Give MIC for all compounds that follow.
1. COC(=O)[C@@H](NC(=O)c1cnccn1)C(C)C [PC-L-Val-Me, methyl (pyrazine-2-carbonyl)-L-valinate]
2. COC(=O)[C@@H](COC(C)(C)C)NC(=O)c1cnccn1
3. C=C(NC(=O)c1cnccn1)C(=O)OC

1. > 500 µM
2. > 500 µM
3. > 125 µM
